- measurement.target: Bifunctional epoxide hydrolase 2 (Homo sapiens, UniProt P34913)
- Sequence (P34913 whole entry): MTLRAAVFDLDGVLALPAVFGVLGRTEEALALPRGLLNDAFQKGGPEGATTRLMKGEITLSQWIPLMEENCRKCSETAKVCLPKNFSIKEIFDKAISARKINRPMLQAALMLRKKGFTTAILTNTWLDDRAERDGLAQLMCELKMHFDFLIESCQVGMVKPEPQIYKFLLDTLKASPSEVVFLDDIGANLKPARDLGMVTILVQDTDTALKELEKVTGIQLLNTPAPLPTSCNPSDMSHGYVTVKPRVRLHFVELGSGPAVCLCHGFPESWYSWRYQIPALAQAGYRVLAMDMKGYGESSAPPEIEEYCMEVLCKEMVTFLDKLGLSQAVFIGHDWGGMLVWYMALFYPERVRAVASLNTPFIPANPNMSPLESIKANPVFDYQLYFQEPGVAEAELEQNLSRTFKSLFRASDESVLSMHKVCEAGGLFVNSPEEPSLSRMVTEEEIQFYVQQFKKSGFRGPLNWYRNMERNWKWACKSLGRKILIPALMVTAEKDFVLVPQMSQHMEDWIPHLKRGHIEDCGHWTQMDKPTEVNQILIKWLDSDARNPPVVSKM
- method.description: Inhibition of recombinant human soluble epoxide hydrolase using PHOME as substrate assessed as 6-methoxynaphthaldehyde product formation preincubated with compound for 10 mins followed by substrate addition and measured by fluorescence based analysis
The label Criterion met is reserved for IC50 strictly under 1 nM; Criterion not met covers values equal to or above it.

molecule="CN(C)C(=O)C1CCCN(Cc2ccc(NC(=O)N[C@@]34C[C@@H]5C[C@@](C)(C[C@@](C)(C5)C3)C4)c(F)c2)C1 (stereo partly specified)" class="Criterion met"
molecule="C[C@]12C[C@@H]3C[C@](C)(C1)C[C@@](NC(=O)Nc1ccc(C(=O)NC4CCC(C(=O)NCCO)CC4)cc1F)(C3)C2 (stereo partly specified)" class="Criterion met"
molecule="CCC(C)C(=O)N1CCC(CC(=O)N2CCCN(Cc3ccc(NC(=O)N[C@@]45C[C@@H]6C[C@@](C)(C[C@@](C)(C6)C4)C5)c(F)c3)CC2)CC1 (stereo partly specified)" class="Criterion met"

Strictly below 1 nM: is that where IC50 of "C[C@]12C[C@@H]3C[C@](C)(C1)C[C@@](NC(=O)Nc1ccc(CN4CCC(C(=O)NC(CO)(CO)CO)CC4)cc1F)(C3)C2" sits?
Criterion not met

Request: CCC(C)C(=O)N1CCCN(C(=O)C2CCCN(C(=O)c3ccc(NC(=O)N[C@@]45C[C@@H]6C[C@@](C)(C[C@@](C)(C6)C4)C5)c(F)c3)C2)CC1 (stereo partly specified)
Criterion not met

Request: "CC(=O)N1CCC(CC(=O)N2CCCN(Cc3ccc(NC(=O)N[C@@]45C[C@@H]6C[C@@](C)(C[C@@](C)(C6)C4)C5)c(F)c3)CC2)CC1"
Criterion met

Request: CCC(=O)N1CCCN(C(=O)C2CCCN(C(=O)c3ccc(NC(=O)N[C@@]45C[C@@H]6C[C@@](C)(C[C@@](C)(C6)C4)C5)c(F)c3)C2)CC1 (stereo partly specified)
Criterion met

Request: CC(O)CNC(=O)C1CCN(Cc2ccc(NC(=O)N[C@@]34C[C@@H]5C[C@@](C)(C[C@@](C)(C5)C3)C4)c(F)c2)CC1 (stereo partly specified)
Criterion not met

Request: CCC(=O)N1CCCN(C(=O)C2CCCN(Cc3ccc(NC(=O)N[C@@]45C[C@@H]6C[C@@](C)(C[C@@](C)(C6)C4)C5)c(F)c3)C2)CC1 (stereo partly specified)
Criterion met

----------
Below, each entry is listed with its recorded pIC50.
- measurement.target: Bifunctional epoxide hydrolase 2 (Mus musculus, UniProt P34914)
- Sequence (P34914 whole entry): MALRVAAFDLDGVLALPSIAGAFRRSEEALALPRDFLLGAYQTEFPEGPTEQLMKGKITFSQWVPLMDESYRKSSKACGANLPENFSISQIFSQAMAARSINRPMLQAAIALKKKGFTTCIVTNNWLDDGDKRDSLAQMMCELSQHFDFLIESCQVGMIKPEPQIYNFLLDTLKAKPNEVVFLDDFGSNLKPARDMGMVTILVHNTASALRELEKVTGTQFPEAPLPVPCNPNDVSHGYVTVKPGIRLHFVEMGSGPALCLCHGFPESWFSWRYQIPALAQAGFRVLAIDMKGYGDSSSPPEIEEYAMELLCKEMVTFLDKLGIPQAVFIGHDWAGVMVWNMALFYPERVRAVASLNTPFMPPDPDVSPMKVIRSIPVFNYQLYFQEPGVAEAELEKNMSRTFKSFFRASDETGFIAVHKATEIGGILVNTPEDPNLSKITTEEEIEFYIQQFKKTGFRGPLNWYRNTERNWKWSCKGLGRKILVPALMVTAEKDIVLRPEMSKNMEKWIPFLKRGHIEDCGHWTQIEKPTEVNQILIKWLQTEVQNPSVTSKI
- method.description: Inhibition of recombinant mouse soluble epoxide hydrolase using PHOME as substrate assessed as 6-methoxynaphthaldehyde product formation preincubated with compound for 10 mins followed by substrate addition and measured by fluorescence based analysis
Please note pIC50 is a logarithmic value: minus log10 of concentration in mol/L. Answer with that number alone.

compound=CCC(=O)N1CCC(CC(=O)N2CCCN(C(=O)c3ccc(NC(=O)N[C@@]45C[C@@H]6C[C@@](C)(C[C@@](C)(C6)C4)C5)c(F)c3)CC2)CC1 obs_value=9.41
compound="CC(C)(C)OC(=O)N1CCN(CCNC(=O)C2CCC(NC(=O)c3ccc(NC(=O)N[C@@]45C[C@@H]6C[C@@](C)(C[C@@](C)(C6)C4)C5)c(F)c3)CC2)CC1 (some centres not stated)" obs_value=8.70
compound="CN(C)C(=O)C1CCCN(Cc2ccc(NC(=O)N[C@@]34C[C@@H]5C[C@@](C)(C[C@@](C)(C5)C3)C4)c(F)c2)C1 (some centres not stated)" obs_value=9.92
compound="CC(CN(C)C)N1CCC(CC(=O)N2CCCN(C(=O)c3ccc(NC(=O)N[C@@]45C[C@@H]6C[C@@](C)(C[C@@](C)(C6)C4)C5)c(F)c3)CC2)CC1 (some centres not stated)" obs_value=9.10
compound="CC(O)CNC(=O)C1CCN(Cc2ccc(NC(=O)N[C@@]34C[C@@H]5C[C@@](C)(C[C@@](C)(C5)C3)C4)c(F)c2)CC1 (some centres not stated)" obs_value=9.33

Sample C=CC(=O)N1CCCN(C(=O)C2CCCN(Cc3ccc(NC(=O)N[C@@]45C[C@@H]6C[C@@](C)(C[C@@](C)(C6)C4)C5)c(F)c3)C2)CC1 (some centres not stated) — what was its pIC50?
8.96

Request: CC(O)CNC(=O)C1CCCN(C(=O)c2ccc(NC(=O)N[C@]34C[C@@H]5C[C@@](C)(C[C@@](C)(C5)C3)C4)c(F)c2)C1 (some centres not stated)
9.64

Request: CC(=O)N1CCCN(C(=O)C2CCCN(C(=O)c3ccc(NC(=O)N[C@@]45C[C@@H]6C[C@@](C)(C[C@@](C)(C6)C4)C5)c(F)c3)C2)CC1 (some centres not stated)
9.59

Request: CC(O)CNC(=O)C1CCC(NC(=O)c2ccc(NC(=O)N[C@@]34C[C@@H]5C[C@@](C)(C[C@@](C)(C5)C3)C4)c(F)c2)CC1 (some centres not stated)
9.36

Request: CCN(CC)C(=O)C1CCCN(Cc2ccc(NC(=O)N[C@@]34C[C@@H]5C[C@@](C)(C[C@@](C)(C5)C3)C4)c(F)c2)C1 (some centres not stated)
9.25

Request: C[C@]12C[C@@H]3C[C@](C)(C1)C[C@](NC(=O)Nc1ccc(C(=O)N4CCCC(C(=O)NCCO)C4)cc1F)(C3)C2 (some centres not stated)
9.82

Request: C[C@]12C[C@@H]3C[C@](C)(C1)C[C@@](NC(=O)Nc1ccc(CN4CCCC(C(=O)N5CCCN(C(=O)C6CC6)CC5)C4)cc1F)(C3)C2 (some centres not stated)
9.10
